Tested on: WaGa
PROCEDURE_DETAILS: qHTS assay to identify novel small-molecules to repurpose for Merkel cell carcinoma treatment (AID 1296009); note: nearly all actives have a fitted effect of over 60% in size
SETUP_CONDITIONS: MCC and control cell lines, CellTiter-Glo viability, 72 h; series mostly up to 46 µM
Results filed as inconclusive are left out. The source made the active and inactive calls. Calls come from the whole dose curve; as a rule, active = well fitted inhibition curve with a large enough effect; inconclusive = small, poorly fitted or top-dose-only effect; inactive = flat fitted curve, though single readings scatter.
# valid calls are active, inactive; nothing else

Answered cases to consult:
COc1c(C)c2c(c(O)c1C/C=C(\C)CCC(=O)O)C(=O)OC2 ... active
O=C(N/N=C/c1ccccc1O)c1ccncc1 ... active
COc1ccc(CCN2CCC(Nc3nc4ccccc4n3Cc3ccc(F)cc3)CC2)cc1 ... active

Recorded call for CNCC[C@@H](Oc1ccccc1C)c1ccccc1 ?
inactive

Recorded call for CC(=O)OCC(=O)[C@@]12N=C(C)O[C@@H]1C[C@H]1[C@@H]3CCC4=CC(=O)C=C[C@]4(C)[C@H]3[C@@H](O)C[C@@]12C ?
inactive

---

Tested on: CP192
PROCEDURE_DETAILS: qHTS profiling for inhibitors of Plasmodium falciparum proliferation (AID 504749); note: nearly all actives have a fitted effect of over 60% in size
SETUP_CONDITIONS: P. falciparum in erythrocytes, SYBR Green DNA, 72 h; series mostly up to 28.7 µM
Results filed as inconclusive are left out. Activity calls are given as the source filed them. Calls follow the shape of the dose curve; as a rule, active = well fitted inhibition curve with a large enough effect; inconclusive = small, poorly fitted or top-dose-only effect; inactive = flat fitted curve, though single readings scatter.
# valid calls are active, inactive; nothing else

Answered cases to consult:
Cc1ccc(O)c2ncccc12 ... inactive
CCCCCCCCCCCCCCCC[N+](C)(C)CCN(Cc1ccc(OC)cc1)c1ncccn1 ... inactive
CCN(CC)C(=O)N1CCN(C)CC1 ... inactive
COc1ccc(CCN2CCC(Nc3nc4ccccc4n3Cc3ccc(F)cc3)CC2)cc1 ... active

Recorded call for Cc1cc(=O)n(-c2ccccc2)n1C ?
inactive

Recorded call for CCN(CCCc1ccccc1)CCCc1ccccc1 ?
inactive

---

System: CP237
PROCEDURE_DETAILS: qHTS profiling for inhibitors of Plasmodium falciparum proliferation (AID 504749); note: nearly all actives have a fitted effect of over 60% in size
SETUP_CONDITIONS: P. falciparum in erythrocytes, SYBR Green DNA, 72 h; series mostly up to 28.7 µM
Inconclusive results are not listed. Active and inactive are the calls of the source. Calls follow the shape of the dose curve; as a rule, active = well fitted inhibition curve with a large enough effect; inconclusive = small, poorly fitted or top-dose-only effect; inactive = flat fitted curve, though single readings scatter.
# valid calls are active, inactive; nothing else

Answered cases to consult:
CNCCC(Oc1ccccc1C)c1ccccc1 (stereo not drawn) ... inactive
CCCCC(CC)CN=C(N)NC(N)=NCCCCCCN=C(N)NC(N)=NCC(CC)CCCC (stereo not drawn) ... active

Please turn your attention to the following entry.
Recorded call for O=C1OC(c2ccc(O)cc2)(c2ccc(O)cc2)c2ccccc21 ?
inactive

---

PROCEDURE_DETAILS: Cellular Toxicity (caspase-3) Mesangial (AID 660);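 note: combined caspase 3 and 7 activity read by Caspase-Glo luminescence; cells exposed to compound for 16 h before the caspase read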
SETUP_CONDITIONS: mesangial cells, normalized: DMSO 0%, 100 µM tamoxifen 100%; series mostly up to 91.7 µM
Active and inactive are the calls of the source. Calls follow the shape of the dose curve; as a rule, active = well fitted activation curve with a large enough effect; inconclusive = small, poorly fitted or top-dose-only effect; inactive = flat fitted curve, though single readings scatter.
ATTRIBUTE_MEASURED: outcome

Worked set:
C=CCc1ccc(O)c(OC)c1 ... inactive
COc1cccc2c1C(=O)c1c(O)c3c(c(O)c1C2=O)C[C@@](O)(C(=O)CO)C[C@@H]3O[C@H]1C[C@H](N)[C@H](O)[C@H](C)O1 ... inactive
NC(=NCCCCCCN=C(N)/N=C(\N)Nc1ccc(Cl)cc1)/N=C(\N)Nc1ccc(Cl)cc1 ... inactive
CC(O)C(=O)O (configuration not stated) ... inactive
COC1=CC(=O)C[C@@H](C)[C@]12Oc1c(Cl)c(OC)cc(OC)c1C2=O ... inactive

# map each molecule to its outcome
1. C=C(CC)C(=O)c1ccc(OCC(=O)O)c(Cl)c1Cl
2. Oc1c(I)cc(Cl)c2cccnc12
3. CN(C)/N=N/c1nc[nH]c1C(N)=O
4. Oc1ccc(O)cc1
5. Oc1ccc(Cl)cc1Sc1cc(Cl)ccc1O

1: inactive; 2: inactive; 3: inactive; 4: inactive; 5: inactive

# map each molecule to its outcome
1. O=C(O)CCCCC(=O)O
2. O=c1ccc2ccccc2o1

1. inactive
2. inactive

Sourced from PubChem BioAssay (NCATS)
